These measurements were taken from patent US20230295157A1.

molecular target: Factor XIa (Homo sapiens (Human), UniProt P03951); test: Factor XIa inhibition assay (FLINT) utilizing a fluorophore-quencher pair peptide substrate; format: biochemical; conditions: 30 min preincubation, kinetic reads over 30 min, 5Fam-[…]-K5Tamra substrate 15 μM; read-out: FXIa Kin Inh IC50
Sequence (P03951 388-625): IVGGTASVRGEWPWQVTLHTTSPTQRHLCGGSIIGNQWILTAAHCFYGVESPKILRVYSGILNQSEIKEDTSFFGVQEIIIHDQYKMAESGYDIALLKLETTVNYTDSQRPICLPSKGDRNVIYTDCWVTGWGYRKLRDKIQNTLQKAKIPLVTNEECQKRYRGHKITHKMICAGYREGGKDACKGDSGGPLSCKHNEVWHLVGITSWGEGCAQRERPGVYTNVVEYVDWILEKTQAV
Sequence (P03951 19-387 partner): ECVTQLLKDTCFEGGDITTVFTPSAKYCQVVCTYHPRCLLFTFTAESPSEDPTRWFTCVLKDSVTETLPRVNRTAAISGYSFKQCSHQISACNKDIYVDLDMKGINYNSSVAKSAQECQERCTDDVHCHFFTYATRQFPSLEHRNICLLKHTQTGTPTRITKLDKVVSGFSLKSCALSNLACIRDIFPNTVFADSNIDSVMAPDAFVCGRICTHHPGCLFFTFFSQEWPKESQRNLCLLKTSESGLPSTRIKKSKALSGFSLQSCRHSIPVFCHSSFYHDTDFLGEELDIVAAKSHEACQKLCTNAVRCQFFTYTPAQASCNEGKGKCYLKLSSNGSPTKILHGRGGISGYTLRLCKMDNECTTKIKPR
readout_name: log10(IC50) (log10 of the value in nM)
A value of 2 here means IC50 of 100 in nM, since values are log10.

Below, each entry is followed by its recorded log10(IC50) result.
- compound: "[2H]c1nc(C2CCC3CC(c4c(-n5cnnn5)ccc(Cl)c4F)=CC(=O)N32)[nH]c1-c1ccc(N)nc1F (stereo in doubt)"
  study_system: "Factor XIa (Homo sapiens (Human), UniProt P03951)"
  log10(IC50): -0.40
- compound: "O=C1C=C(c2c(-n3cnnn3)ccc(Cl)c2F)C[C@H]2CC[C@H](c3ncc(-c4ccnc(-n5ccnn5)c4F)[nH]3)N12 (single isomer, unassigned)"
  study_system: "Factor XIa (Homo sapiens (Human), UniProt P03951)"
  log10(IC50): 1.14
- compound: "CC1(C)C[C@@H](c2ncc(-c3ccc(N)nc3Cl)[nH]2)N2C(=O)C=C(c3c(-n4cnnn4)ccc(Cl)c3F)C[C@@H]21 (relative stereo)"
  study_system: "Factor XIa (Homo sapiens (Human), UniProt P03951)"
  log10(IC50): 0.76
- compound: "[2H]c1cc(Cl)c(F)c(C2=CC(=O)N3[C@H](CC[C@H]3c3nc([2H])c(-c4ccc(N)nc4F)[nH]3)C2)c1-n1cnnn1"
  study_system: "Factor XIa (Homo sapiens (Human), UniProt P03951)"
  log10(IC50): -0.40
- compound: "C[C@H](Oc1nccc(-c2cnc([C@@H]3CC[C@@H]4CC(c5c(-n6cnnn6)ccc(Cl)c5F)=CC(=O)N43)[nH]2)c1F)c1nnco1 (relative stereo)"
  study_system: "Factor XIa (Homo sapiens (Human), UniProt P03951)"
  log10(IC50): 0.79

Turning now to a further record.
So what's the measured log10(IC50) for this one? O=C1C=C(c2c(-n3cnnn3)ccc(Cl)c2F)C[C@H]2CC[C@@H](c3ncc(-c4ccnc(C5(O)CC5)c4Cl)[nH]3)N12 (relative stereo)
0.69
